Values from paper PMC7306618

Protocol details: MDCK cell monolayer apparent permeability
Assay type: in vitro ADME, Canine
Stated conditions: dog, MDCK
Property label: Papp (×10⁻⁶ cm/s)
Give bare numbers, in ×10⁻⁶ cm/s.

Quick one: give measured Papp for C[C@H]1CN(C2COC2)CCN1c1ccc(Nc2cc(-c3ccnc(N4CCn5c(cc6c5CC(C)(C)C6)C4=O)c3CO)cn(C)c2=O)nc1 15.1

###

Target desc: human BCRP (Homo sapiens, UniProt Q9UNQ0)
Sequence (Q9UNQ0 1-655): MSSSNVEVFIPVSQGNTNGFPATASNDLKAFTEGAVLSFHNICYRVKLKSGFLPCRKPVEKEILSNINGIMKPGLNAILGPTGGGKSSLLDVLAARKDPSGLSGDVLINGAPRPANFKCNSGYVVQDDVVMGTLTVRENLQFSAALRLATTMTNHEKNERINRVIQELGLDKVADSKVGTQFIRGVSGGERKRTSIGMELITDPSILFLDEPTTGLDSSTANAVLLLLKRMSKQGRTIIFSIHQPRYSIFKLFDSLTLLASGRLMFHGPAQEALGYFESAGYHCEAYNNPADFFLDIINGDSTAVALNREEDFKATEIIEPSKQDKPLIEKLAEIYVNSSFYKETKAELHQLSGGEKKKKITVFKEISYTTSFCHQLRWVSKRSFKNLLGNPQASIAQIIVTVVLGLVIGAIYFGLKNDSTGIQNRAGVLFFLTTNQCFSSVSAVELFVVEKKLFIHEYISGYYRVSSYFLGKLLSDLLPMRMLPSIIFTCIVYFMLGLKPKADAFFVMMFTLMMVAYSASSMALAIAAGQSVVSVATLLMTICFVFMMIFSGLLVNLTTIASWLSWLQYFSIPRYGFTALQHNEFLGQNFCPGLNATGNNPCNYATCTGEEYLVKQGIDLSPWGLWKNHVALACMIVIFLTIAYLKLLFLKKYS
Protocol details: Inhibition of BCRP-mediated efflux in MDCKII cells
Property label: pKi
Answers are plain numbers, as −log10 of the molar value.

Quick one: give measured pKi for C[C@H]1CN(C2COC2)CCN1c1ccc(Nc2cc(-c3ccnc(N4CCn5c(cc6c5CC(C)(C)C6)C4=O)c3CO)cn(C)c2=O)nc1 [fenebrutinib] 6.03
